system.tested: Neuropeptide Y receptor type 1 (Homo sapiens)
assay.explanation: NPY-Y1 receptor potentiators or agonists, primary screen, cell-based (AID 1304);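 note: cells stimulated with NPY at EC10 then isoproterenol at EC100; 0% = low agonist plus stimulus and 100% = saturating agonist plus stimulus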
measurement.conditions: NPY-Y1 expressing cells, potentiator/agonist activation; at 3.6 µM; stronger effect = higher value
In all, about 220,000 compounds went through this assay and about 800 (0.36%) were called active. The sample as a whole holds a higher share of actives than the screen did.
Kindly supply the reported activation values for the records listed here.
Give just the number in %; leave the unit off.

Prompt: Fill in the blank: the reported activation of Cc1cccc(NC(=O)OC2CN3CCC2CC3)c1 (stereo not drawn) is ____.
Completion: 11.8

Prompt: Fill in the blank: the reported activation of Fc1ccc(C2N3CCCN23)cc1 (stereo not drawn) is ____.
Completion: -11.3

Prompt: Fill in the blank: the reported activation of CCOc1cccc(=NC2CCCCC2)c2c(C)[nH]c(C)c12 is ____.
Completion: 11.4

Prompt: Fill in the blank: the reported activation of CNC(=O)Nc1ccc(C(O)(C(=O)OC)C(F)(F)F)cc1 (stereo not drawn) is ____.
Completion: -6.66

Prompt: Fill in the blank: the reported activation of Cc1nn(Cc2ccccc2Cl)c(Cl)c1C(=O)OC(C(=O)NC(N)=O)C(C)C (stereo not drawn) is ____.
Completion: 49.5

Prompt: Fill in the blank: the reported activation of CSc1nc2ccc(C)cc2c(=O)n1-c1cccnc1 is ____.
Completion: 1.29

Prompt: Fill in the blank: the reported activation of C/C=C/CC1(CC)C(=O)NC(=S)NC1=O is ____.
Completion: 11.2

Prompt: Fill in the blank: the reported activation of O=c1[nH]c(=O)n(Cc2ccccc2)c(O)c1/C=N/Nc1c(F)c(F)c(F)c(F)c1F is ____.
Completion: -7.15
